Values were extracted from patent US12564638B2.

test system: PC9 cells (EGFR Exon 19 del, non-small cell lung cancer cells); experiment: Cell viability assay (WST/CCK8), PC9 cells; format: cell-based; settings: Homo sapiens, PC-9; PC9 (Exon19 Del), 72 hours, WST (CCK8); read-out: IC50 (half inhibitory concentration)
reported_property: IC50 (nM)

# example entries with known answers
- molecule: "COc1cc2ncnc(Nc3ccc(F)c(Cl)c3)c2cc1NC(=O)/C=C/CN1CCC(N2CCN(C(=O)CCc3cccc4c3CN(C3CCC(=O)NC3=O)C4=O)CC2)CC1 (centres unmarked)"
  IC50, nM: 1.3
- molecule: "COc1cc2ncnc(Nc3ccc(F)c(Cl)c3)c2cc1NC(=O)/C=C/CN1CCN(C(=O)CCCCCCC(=O)N[C@H](C(=O)N2C[C@H](O)C[C@H]2C(=O)NCc2ccc(-c3scnc3C)cc2)C(C)(C)C)CC1"
  IC50, nM: 70.6
- molecule: "COc1cc2ncnc(Nc3ccc(F)c(Cl)c3)c2cc1NC(=O)/C=C/CN1CCC(NC(=O)CNc2cccc3c2C(=O)N(C2CCC(=O)NC2=O)C3=O)CC1 (centres unmarked)"
  IC50, nM: 32.6
- molecule: "COc1cc2ncnc(Nc3ccc(F)c(Cl)c3)c2cc1NC(=O)/C=C/CN1CCC(N2CCN(C(=O)CCCCCOc3cccc4c3CN(C3CCC(=O)NC3=O)C4=O)CC2)CC1 (centres unmarked)"
  IC50, nM: 13.2
- molecule: "COc1cc2ncnc(Nc3ccc(F)c(Cl)c3)c2cc1NC(=O)/C=C/CN1CCN(C(=O)COCCSc2cccc3c2C(=O)N(C2CCC(=O)NC2=O)C3=O)CC1 (centres unmarked)"
  IC50, nM: 8.9

a = COc1cc2ncnc(Nc3ccc(F)c(Cl)c3)c2cc1NC(=O)/C=C/CN1CCN(C(=O)CCCCNc2cccc3c2CN(C2CCC(=O)NC2=O)C3=O)CC1 (centres unmarked)
b = COc1cc2ncnc(Nc3ccc(F)c(Cl)c3)c2cc1NC(=O)/C=C/CN1CCC(N2CCN(Cc3ccc(CSc4cccc5c4CN(C4CCC(=O)NC4=O)C5=O)cc3)CC2)CC1 (centres unmarked)
c = COc1cc2ncnc(Nc3ccc(F)c(Cl)c3)c2cc1NC(=O)/C=C/CN1CCN(C(=O)CNc2cccc3c2CN(C2CCC(=O)NC2=O)C3=O)CC1 (centres unmarked)
# ascending order, key=IC50 List the labels according to the requested ordering. c, a, b
(c: 4 nM, a: 9.9 nM, b: 74 nM)

A = COc1cc2ncnc(Nc3ccc(F)c(Cl)c3)c2cc1NC(=O)/C=C/CN1CCC(N2CCN(C(=O)CCCCOc3cccc4c3CN(C3CCC(=O)NC3=O)C4=O)CC2)CC1 (centres unmarked)
B = COc1cc2ncnc(Nc3ccc(F)c(Cl)c3)c2cc1NC(=O)/C=C/CN1CCN(C(=O)CCCCCCNc2cccc3c2CN(C2CCC(=O)NC2=O)C3=O)CC1 (centres unmarked)
Looking only at measured IC50, which entry is lower, A or B ? Answer with the label corresponding to your selection. A
(A: 8.6 nM, B: 16 nM)
